target: METTL16–MAT2A-hp1 mRNA interaction (METTL16 MTD 1–291, FAM-labeled MAT2A-hp1 RNA) (Homo sapiens, UniProt Q86W50); experiment: Fluorescence polarization (FP) assay, disruption of METTL16 binding to FAM-MAT2A-hp1 RNA
Sequence (Q86W50 1-291): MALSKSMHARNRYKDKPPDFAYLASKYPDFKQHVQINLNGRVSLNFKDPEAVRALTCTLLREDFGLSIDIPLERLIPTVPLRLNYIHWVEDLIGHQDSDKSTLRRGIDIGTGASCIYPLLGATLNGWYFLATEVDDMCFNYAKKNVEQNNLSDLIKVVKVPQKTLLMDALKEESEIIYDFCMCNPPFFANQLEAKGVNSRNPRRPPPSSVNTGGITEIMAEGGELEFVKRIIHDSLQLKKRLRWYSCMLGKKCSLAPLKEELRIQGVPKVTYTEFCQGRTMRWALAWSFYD
measured metric: IC50 (µM)
Express it in µM; write the number only.

q: Find the measured IC50 of O=C1N=C(NS(=O)(=O)c2ccc(C(F)(F)F)cc2)SC1=C1C(=O)Nc2ccc(Cl)cc21 and report it.
a: 13.6

q: Look up IC50 of COc1ccc(S(=O)(=O)NC2=NC(=O)C(=C3C(=O)Nc4ccc(C)cc43)S2)cc1 and report it.
a: 24.3

q: Provide only the value of recorded IC50 for O=C1N=C(NS(=O)(=O)c2ccc(F)cc2)SC1=C1C(=O)Nc2ccc(Cl)cc21
a: 30.4

q: Tell me its IC50 given O=C1N=C(NS(=O)(=O)c2ccc(C(=O)O)cc2)SC1=C1C(=O)Nc2ccc(Cl)cc21 as the entry.
a: 2.7
